Value source: ChEMBL document CHEMBL5543142

Reported MIC values follow for various compounds
# Test system: Escherichia coli
# METHOD: Antibacterial activity against ESBL-producing multidrug-resistant Escherichia coli clinical isolate 14-2 assessed as inhibition of bacterial growth incubated for 18 to 20 hrs by two fold serial dilution assay
# Format: functional
# PROTOCOL_CONDITIONS: time 18-20 hrs

Below are worked cases with known answers.
Q: Suppose we examine the compound "Nc1nc(/C(=N/OC2(C(=O)O)CC2)C(=O)N[C@@H]2C(=O)N3C(C(=O)O)=C(CSCCNC(=O)c4ccc(O)c(O)c4Cl)CS[C@H]23)cs1.O=C(O)C(F)(F)F" ; what MIC value has been reported?
A: 2 µg/mL

Q: Suppose we examine the compound "Nc1nc(/C(=N/OC2(C(=O)O)CCC2)C(=O)N[C@@H]2C(=O)N3C(C(=O)O)=C(CSCCNC(=O)c4ccc(O)c(O)c4Cl)CS[C@H]23)cs1.O=C(O)C(F)(F)F" ; what MIC value has been reported?
A: 2 µg/mL

Q: Suppose we examine the compound "C[C@](O/N=C(\C(=O)N[C@@H]1C(=O)N2C(C(=O)O)=C(CSCCNC(=O)c3ccc(O)c(O)c3Cl)CS[C@H]12)c1nc(N)sc1Cl)(C(=O)O)C(F)(F)F.O=C(O)C(F)(F)F" ; what MIC value has been reported?
A: 0.5 µg/mL

Q: Suppose we examine the compound "CC(C)(O/N=C(\C(=O)N[C@@H]1C(=O)N2C(C(=O)O)=C(CSCCOCCNC(=O)c3ccc(O)c(O)c3Cl)CS[C@H]12)c1csc(N)n1)C(=O)O.O=C(O)C(F)(F)F" ; what MIC value has been reported?
A: 2 µg/mL

Q: Suppose we examine the compound Nc1nc(/C(=N/OC(C(=O)O)C2CCC(F)(F)CC2)C(=O)N[C@@H]2C(=O)N3C(C(=O)O)=C(CSCCNC(=O)c4ccc(O)c(O)c4Cl)CS[C@H]23)ns1.O=C(O)C(F)(F)F (stereo partly specified) ; what MIC value has been reported?
A: 4 µg/mL

Next:
Q: Suppose we examine the compound "C[C@@](O/N=C(\C(=O)N[C@@H]1C(=O)N2C(C(=O)O)=C(CSCCNC(=O)c3ccc(O)c(O)c3Cl)CS[C@H]12)c1nc(N)sc1Cl)(C(=O)O)C(F)(F)F.O=C(O)C(F)(F)F" ; what MIC value has been reported?
A: 0.5 µg/mL
